- Tested on: HIV-1 IIIB virus
- assay.method.text: Inhibition of wild-type HIV-1
- Format: cell-based
- condition.info: Human immunodeficiency virus 1, IIIB, TZM-bl, read-out: WT EC50 (nM)
measure.name: EC50 (nM)

INSERT INTO assay_data (chemical_smiles, assay_target, measure_name, observed_result) VALUES
  ('N#C/C=C/c1ccc2c(S(=O)(=O)n3nc(Nc4ccc(C#N)c(Cl)c4)nc3N)cccc2c1', 'HIV-1 IIIB virus', 'EC50', 0.47),
  ('N#Cc1ccc2c(S(=O)(=O)n3nc(Nc4ccc(C#N)c(Cl)c4)nc3N)cccc2c1', 'HIV-1 IIIB virus', 'EC50', 0.34),
  ('N#Cc1ccc(Nc2nc(N)n(S(=O)(=O)c3cccc4cc(C#N)ccc34)n2)cc1', 'HIV-1 IIIB virus', 'EC50', 0.35),
  ('N#Cc1ccc2c(S(=O)(=O)n3nc(Nc4ccc(C#N)c(C#N)c4)nc3N)cccc2c1', 'HIV-1 IIIB virus', 'EC50', 0.21),
  ('Cc1cc(/C=C/C#N)cc(C)c1Nc1ccnc(Nc2ccc(C#N)cc2)n1', 'HIV-1 IIIB virus', 'EC50', 0.35);
